target: Trifunctional purine biosynthetic protein adenosine-3 (Mus musculus, UniProt Q64737); test: Inhibition of GAR transformylase isolated from murine lymphoma cell line L5178Y; format: cell-free
Sequence (Q64737 whole entry): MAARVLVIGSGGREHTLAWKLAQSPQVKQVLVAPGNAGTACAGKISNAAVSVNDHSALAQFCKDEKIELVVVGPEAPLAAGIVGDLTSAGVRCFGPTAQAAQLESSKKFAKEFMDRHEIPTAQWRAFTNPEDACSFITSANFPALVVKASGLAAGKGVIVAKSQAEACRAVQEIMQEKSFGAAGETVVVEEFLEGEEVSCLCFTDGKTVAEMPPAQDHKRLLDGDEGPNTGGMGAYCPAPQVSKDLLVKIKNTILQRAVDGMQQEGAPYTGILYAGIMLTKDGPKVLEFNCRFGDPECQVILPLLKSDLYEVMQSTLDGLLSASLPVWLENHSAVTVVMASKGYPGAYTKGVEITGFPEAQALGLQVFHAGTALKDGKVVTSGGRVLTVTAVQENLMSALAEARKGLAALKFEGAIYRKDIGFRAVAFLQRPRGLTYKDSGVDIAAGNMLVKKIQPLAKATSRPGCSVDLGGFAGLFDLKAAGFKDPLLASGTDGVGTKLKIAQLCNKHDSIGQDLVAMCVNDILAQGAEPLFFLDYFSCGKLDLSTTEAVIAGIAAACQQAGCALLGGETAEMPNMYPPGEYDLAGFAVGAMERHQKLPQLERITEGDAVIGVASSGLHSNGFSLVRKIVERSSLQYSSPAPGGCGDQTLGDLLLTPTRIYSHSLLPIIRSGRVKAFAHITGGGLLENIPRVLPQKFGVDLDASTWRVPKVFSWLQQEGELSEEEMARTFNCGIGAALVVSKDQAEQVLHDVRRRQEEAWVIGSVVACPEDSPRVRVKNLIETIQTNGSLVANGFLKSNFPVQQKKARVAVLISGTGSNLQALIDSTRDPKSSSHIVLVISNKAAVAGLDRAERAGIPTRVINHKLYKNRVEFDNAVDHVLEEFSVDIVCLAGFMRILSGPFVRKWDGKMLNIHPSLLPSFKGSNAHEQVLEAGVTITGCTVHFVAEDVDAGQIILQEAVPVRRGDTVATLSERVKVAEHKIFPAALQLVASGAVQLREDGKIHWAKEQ
READOUT: Ki (µM)

- Nc1nc2ccc(CN(Cc3cccc(F)c3)c3ccc(C(=O)NC(CCC(=O)O)C(=O)O)cc3)cc2c(=O)[nH]1 (stereo not drawn): 18

1. CC(C)N(Cc1ccc2nc(N)nc(O)c2c1)c1ccc(C(=O)NC(CCC(=O)O)C(=O)O)cc1 (stereo not drawn)
2. Nc1nc2ccc(CN(CC3CC3)c3ccc(C(=O)NC(CCC(=O)O)C(=O)O)cc3)cc2c(=O)[nH]1 (stereo not drawn)
**Query** For the two items 1 and 2 , which reports the higher Ki value? Use the label to indicate which entry you chose.
**Result** 1
(1: 19 µM, 2: 8 µM)
